subject of test: E. coli RNA polymerase σ70 holoenzyme (Escherichia coli (strain K12), UniProt P0A8T7+P0A8V2)
measurement description: Fluorescence-detected assay of inhibition of Escherichia coli RNA polymerase
Assay type: biochemical
condition description: read-out: RNAP-inhibitory activity E. coli RNAP IC50
pIC50: −log10 of the molar value.
# reported pIC50; entries follow
readout kind: pIC50

[2H]C([2H])([2H])OC(=O)N/C=C/CCCc1cc([O-])c(C(=O)/C(C)=C/c2cnc(Oc3ccc(-c4ccccc4)cc3)s2)c(=O)o1.[Na+] [Example 14]
7.30
[2H]C([2H])([2H])OC(=O)N/C=C/CCCc1cc(O)c(C(=O)/C(C)=C/c2cnc(Oc3ccc(F)cc3)s2)c(=O)o1 [Example 8]
8.40
[2H]C([2H])([2H])OC(=O)N/C=C/CCCc1cc(O)c(C(=O)/C(C)=C/c2cnc(Oc3ccc(-c4ccccc4)cc3)s2)c(=O)o1 [Example 13]
7.70
[2H]C([2H])([2H])OC(=O)N/C=C/CCCc1cc([O-])c(C(=O)/C(C)=C/c2cnc(Oc3ccc(F)cc3)s2)c(=O)o1.[K+] [Example 10]
8.22
[2H]C([2H])([2H])OC(=O)N/C=C/CCCc1cc(O)c(C(=O)/C(C)=C/c2cnc(Oc3ccc(F)c(Cl)c3)s2)c(=O)o1 [Example 11]
8.52

Values were extracted from patent US20250115594A1.
